- experimentalProtocol: Ferric reducing antioxidant power (FRAP) assay
- conditionDescription: Perl's Prussian blue at 700 nm; Fig. 2; BHT positive control
measureName: reducing power (FRAP, in words)

INSERT INTO results (compound, measurename, result) VALUES
  ('CC[C@H](CC[C@@H](C)[C@H]1CCC2C3CC=C4C[C@@H](O[C@@H]5O[C@H](CO)[C@@H](O)[C@H](O)[C@H]5O)CC[C@]4(C)C3CC[C@@]21C)C(C)C (stereo partly drawn) [Compound 4, sitosterol-3-O-β-D-glucopyranoside]', 'reducing power (FRAP, in words)', 'not active'),
  ('CC1(C)CC[C@]2(C(=O)O)CC[C@]3(C)C(=CC[C@@H]4[C@@]5(C)CC[C@H](O)C(C)(C)[C@@H]5CC[C@]43C)[C@@H]2C1 [Compound 13, oleanolic acid]', 'reducing power (FRAP, in words)', 'not active'),
  ('C=C(C)[C@@H]1CC[C@]2(C)CC[C@]3(C)[C@H](CC[C@@H]4[C@@]5(C)CC[C@H](O)C(C)(C)[C@@H]5CC[C@]43C)[C@@H]12 [Compound 9, lupeol]', 'reducing power (FRAP, in words)', 'not active');
